Tested on: 292921-168-R-J2-PDC KRAS tumor spheroid viability;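 note: drug exposure lasted seven days after spheroids formed for three days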
protocol.description: Anticancer human tumor 292921-168-R-J2-PDC patient-derived pancreatic carcinoma cell line growth inhibition [KRAS2]; active = viability on the fitted dose curve at most 10% of control; inactive = the rest
measurement.context: second compound 0.316 µM; first compound 10 µM; spheroids with HUVEC and MSC
Tick one outcome: active, inactive

Lookup: GET /call?item= COC(=O)c1ccc2c(C(=Nc3ccc(N(C)C(=O)CN4CCN(C)CC4)cc3)c3ccccc3)c(O)[nH]c2c1 + CC1OCC2(CCN(c3cnc(Sc4ccnc(N)c4Cl)c(N)n3)CC2)C1N returns the recorded outcome of this test.
Found: active

Lookup: GET /call?item= CC(C)NCC(C(=O)N1CCN(c2ncnc3c2C(C)CC3O)CC1)c1ccc(Cl)cc1 (stereo not drawn) + C=CC(=O)N1CCN(c2nc(OCC3CCCN3C)nc3c2CCN(c2cccc4cccc(C)c24)C3)CC1CC#N returns the recorded outcome of this test.
Found: inactive

Lookup: GET /call?item= Cn1nccc1Nc1nccc(-c2cc3c(s2)C(C)(C)N(CCN2CCOCC2)C3=O)n1 + COc1cc2nc(C)nc(NC(C)c3cc(N)cc(C(F)(F)F)c3)c2cc1OC1CCOC1 returns the recorded outcome of this test.
Found: active
